B1: mRNA-splicing (parent)
chain: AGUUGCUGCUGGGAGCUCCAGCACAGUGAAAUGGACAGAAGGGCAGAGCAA

variants of: B1; test: exon inclusion enrichment index; higher = more inclusion; WT1 exon 5 minigene, HEK293
Is exon inclusion enrichment index at least 0.2? Then Condition met. If not, Condition not met.

Take a look at these entries with their results.
C6A U7A C9A U10A A25G G26C; Condition met
C6A U7C C9A U10C C22A A23G; Condition met
C6A U7A C9A U10A G28A; Condition not met
G5A C6U U7A G8U C9A G41C G42A; Condition not met
G33C G34U; Condition not met
G5C C6U G8C C9U U10C U32A G33U; Condition met
G42A G43U; Condition met
G5U C6G U7C G8U C9U; Condition met
G5C C6A U7C G8A U10A A29C A30G; Condition met
C6A U7C C9A U10C C16G U17A; Condition met

Hi, just wondering whether G5C C6U G8C C9U U10C U27G shows exon inclusion enrichment index of 0.2 or higher. Condition met

Hi, just wondering whether G5A C6G U7G C9A G38C shows exon inclusion enrichment index of 0.2 or higher. Condition not met

Hi, just wondering whether G5A C6U U7A G8U C9A G12A G13C shows exon inclusion enrichment index of 0.2 or higher. Condition not met
